- system: KRas G13D (Homo sapiens, UniProt P01116, G13D)
- Sequence (P01116 1-169 isoform P01116-2 G13D): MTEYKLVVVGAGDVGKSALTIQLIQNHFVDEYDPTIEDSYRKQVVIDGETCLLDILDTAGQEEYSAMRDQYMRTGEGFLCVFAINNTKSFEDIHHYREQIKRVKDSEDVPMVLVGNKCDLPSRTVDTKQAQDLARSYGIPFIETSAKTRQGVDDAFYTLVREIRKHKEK
- Format: binding
- reported-conditions: TR-FRET displacement, read-out: Binding to KRas (IC50 nM) G13D
parameter: IC50 (nM)

compound: CCc1cccc2cccc(N3CCc4c(nc(OCC5(CN(C)C)CC5)nc4N4CC(C)CC(CO)C4)C3)c12 (stereo not shown) [Example 516]
IC50 / nM: 3180

[P] CCc1cccc2cccc(N3CCc4c(nc(OCC5(CN(C)C)CC5)nc4NCC4COCC4n4cc(C(N)=O)nn4)C3)c12 (stereo not shown) [Example 705]
[Q] CCc1cccc2cccc(N3CCc4c(nc(OCC5(CN(C)C)CC5)nc4N(C)Cc4nnc5c(=O)n(C)ccn45)C3)c12 [Example 700]
[R] CCc1cccc2cccc(N3CCc4c(nc(OCC5(CN(C)C)CC5)nc4N4CCCOC(CCO)C4)C3)c12 (stereo not shown) [Example 515]
[S] Cc1cc2[nH]ncc2c(N2CCc3c(nc(OCC45CCCN4CCC5)nc3N3CCCC4(CC(=O)N4)C3)C2)c1C (stereo not shown) [Example 456]
[T] Cc1cc2[nH]ncc2c(N2CCc3c(nc(OCC45CCCN4CCC5)nc3N3CCC[C@]4(C3)NC(=O)NC4=O)C2)c1C [Example 455]
Rank items: key IC50, increasing. Please list the labels according to the requested order.
T, S, Q, R, P

---

- system: KRas G12V (Homo sapiens, UniProt P01116, G12V)
- Sequence (P01116 1-169 isoform P01116-2 G12V): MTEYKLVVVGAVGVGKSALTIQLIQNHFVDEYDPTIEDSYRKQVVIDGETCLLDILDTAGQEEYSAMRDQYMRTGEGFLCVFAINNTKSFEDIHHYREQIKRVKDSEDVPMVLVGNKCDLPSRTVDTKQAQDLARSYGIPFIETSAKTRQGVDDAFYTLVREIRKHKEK
- test-name: biochemical
- reported-conditions: Binding to KRas (IC50 nM) G12V, TR-FRET displacement, KRas G12V
parameter: IC50 (nM)

Below: 2 molecules and their reported IC50.
molecule: CCc1cccc2cccc(N3CCc4c(nc(OCC5(CN(C)C)CC5)nc4NCc4cc(CO)[nH]n4)C3)c12 [Example 539]
IC50 [nM]: 5880

molecule: CCc1c(F)ccc2cc(O)cc(N3CCc4c(nc(OC[C@@]56CCCN5C[C@H](F)C6)nc4N4CCCn5nc(NC)c(OC)c5C4)C3)c12 [Example 393]
IC50 [nM]: 5

[1] CCc1c(F)ccc2cc(O)cc(N3CCc4c(nc(OC[C@@]56CCCN5C[C@H](F)C6)nc4N4CCCCC(COCC(=O)N(C)C)C4)C3)c12 (stereo partly shown) [Example 251]
[2] CCc1cccc2cccc(N3CCc4c(nc(OCC5(CN(C)C)CC5)nc4NCc4nnc(C5CCOC5)[nH]4)C3)c12 (stereo not shown) [Example 691]
Could you kindly indicate whether 1 or 2 has the higher IC50 value? Refer to your chosen item by its label in the answer.
2

---

Catalogue of inhibition at 0.1 µM values
- System: H358 cells
- test-name: Inhibition of KRas-mediated phosphorylation of ERK (Cisbio HTRF pERK), H358 cells
- Type: cell-based
- reported-conditions: Homo sapiens, NCI-H358, single point at 100 nM, 3 hrs compound incubation
Answer format: numeric, % implied, no suffix.

# annotated cases, reported inhibition at 0.1 µM shown
compound: CCc1c(F)ccc2cc(O)cc(N3CCc4c(nc(OC[C@@]56CCCN5C[C@H](F)C6)nc4N4CCCn5nc(N(C)S(N)(=O)=O)cc5C4)C3)c12
inhibition at 0.1 µM (%): 20
//
compound: CCc1c(F)ccc2cc(O)cc(N3CCc4c(nc(OC[C@@]56CCCN5C[C@H](F)C6)nc4N4CCCc5nn(C6CC6)cc5C4)C3)c12
inhibition at 0.1 µM (%): -8
//
compound: CCc1c(F)ccc2cc(O)cc(N3CCc4c(nc(OC[C@@]56CCCN5C[C@H](F)C6)nc4N4CCCn5nc(C(=O)N(C)C6CCC6)cc5C4)C3)c12
inhibition at 0.1 µM (%): 94
//
compound: CCc1c(F)ccc2cc(O)cc(N3CCc4c(nc(OC[C@@]56CCCN5C[C@H](F)C6)nc4N4CCCn5nc(C(=O)N(C)CCOC)cc5C4)C3)c12
inhibition at 0.1 µM (%): 99
//
compound: CCc1c(F)ccc2cc(O)cc(N3CCc4c(nc(OC[C@@]56CCCN5C[C@H](F)C6)nc4N4CCCc5nc(C(=O)N(C)C)sc5C4)C3)c12
inhibition at 0.1 µM (%): 43

Summary for this compound, CCc1c(F)ccc2cc(O)cc(N3CCc4c(nc(OC[C@@]56CCCN5C[C@H](F)C6)nc4N4CCCn5nc(C(=O)N6CC7CNC(C7)C6)cc5C4)C3)c12 (stereo partly drawn) : inhibition at 0.1 µM is -28

`CCc1c(F)ccc2cc(O)cc(N3CCc4c(nc(OC[C@@]56CCCN5C[C@H](F)C6)nc4N4CCCn5nc(C(=O)N(C)CCOCCOC)cc5C4)C3)c12` has a reported inhibition at 0.1 µM of 93

The reported value for CCc1c(F)ccc2cc(O)cc(N3CCc4c(nc(OC[C@@]56CCCN5C[C@H](F)C6)nc4N4CCCCC(COCC(=O)N(C)C)C4)C3)c12 (stereo partly drawn) in terms of inhibition at 0.1 µM is 2

Lab note: measured inhibition at 0.1 µM of `Oc1cc(Cl)c(C2CC2)c(N2CCc3c(nc(OCC45CCCN4CCC5)nc3N3CCC[C@]4(C3)C[C@@H](O)C4)C2)c1` was 11

Measured inhibition at 0.1 µM, `CCc1c(F)ccc2cc(O)cc(N3CCc4c(nc(OC[C@@]56CCCN5C[C@H](F)C6)nc4N4CCCn5nc(CNC(C)=O)cc5C4)C3)c12` : -10

---

- system: KRas G12C (Homo sapiens, UniProt P01116, G12C)
- Sequence (P01116 1-169 isoform P01116-2 G12C): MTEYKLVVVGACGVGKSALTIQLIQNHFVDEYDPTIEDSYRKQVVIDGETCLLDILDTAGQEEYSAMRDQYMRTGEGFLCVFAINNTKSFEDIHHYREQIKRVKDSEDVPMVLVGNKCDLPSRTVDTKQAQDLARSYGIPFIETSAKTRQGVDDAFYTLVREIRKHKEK
- Type: binding
- reported-conditions: single point, 10 nM compound, read-out: Binding to KRas (% inhibition at 10 nM) G12C
parameter: inhibition at 0.01 µM (%)

chemical-structure: CCc1c(F)ccc2cc(O)cc(N3CCc4c(nc(OC[C@@]56CCCN5C[C@H](F)C6)nc4N4CCCn5nc(C(=O)N(C)C)c(Br)c5C4)C3)c12
parameter: inhibition at 0.01 µM
unit-text: %
reported-result: 100

chemical-structure: CCc1c(F)ccc2cc(O)cc(N3CCc4c(nc(OC[C@@]56CCCN5C[C@H](F)C6)nc4N4CCCCn5nc(C(=O)N6CCOCC6)cc5C4)C3)c12
parameter: inhibition at 0.01 µM
unit-text: %
reported-result: 100

chemical-structure: CCNC(=O)c1nn2c(c1Cl)CN(c1nc(OC[C@@]34CCCN3C[C@H](F)C4)nc3c1CCN(c1cc(O)cc4ccc(F)c(CC)c14)C3)CCC2
parameter: inhibition at 0.01 µM
unit-text: %
reported-result: 100

chemical-structure: CCc1c(F)ccc2cc(O)cc(N3CCc4c(nc(OC[C@@]56CCCN5C[C@H](F)C6)nc4N4CCCn5nc(C(=O)N(C)C(C)C)cc5C4)C3)c12
parameter: inhibition at 0.01 µM
unit-text: %
reported-result: 99

chemical-structure: CCNC(=O)c1cc2n(n1)CCCCN(c1nc(OC[C@@]34CCCN3C[C@H](F)C4)nc3c1CCN(c1cc(O)cc4ccc(F)c(CC)c14)C3)C2
parameter: inhibition at 0.01 µM
unit-text: %
reported-result: 99

chemical-structure: CCc1c(F)ccc2cc(O)cc(N3CCc4c(nc(OC[C@@]56CCCN5C[C@H](F)C6)nc4N4CCCCn5nc(C(=O)N(C)C)cc5C4)C3)c12
parameter: inhibition at 0.01 µM
unit-text: %
reported-result: 99

---

- system: KRas G12S (Homo sapiens, UniProt P01116, G12S)
- Sequence (P01116 1-169 isoform P01116-2 G12S): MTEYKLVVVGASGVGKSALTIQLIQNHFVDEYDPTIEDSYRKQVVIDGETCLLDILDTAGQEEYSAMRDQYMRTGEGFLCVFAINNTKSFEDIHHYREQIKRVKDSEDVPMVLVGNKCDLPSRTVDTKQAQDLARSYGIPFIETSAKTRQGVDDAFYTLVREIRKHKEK
- Format: binding
- reported-conditions: single point, 10 nM compound, read-out: Binding to KRas (% inhibition at 10 nM) G12S
parameter: inhibition at 0.01 µM (%)

compound: CCc1c(F)ccc2cc(O)cc(N3CCc4c(nc(OC[C@@]56CCCN5C[C@H](F)C6)nc4N4CCCn5nc(C(=O)N6CC7CC(C6)N7)cc5C4)C3)c12
system: KRas G12S (Homo sapiens, UniProt P01116, G12S)
reported-result: 99
--
compound: CCc1c(F)ccc2cc(O)cc(N3CCc4c(nc(OC[C@@]56CCCN5C[C@H](F)C6)nc4N4CCCn5nc(C(=O)N6C[C@H](C)N[C@@H](C)C6)cc5C4)C3)c12
system: KRas G12S (Homo sapiens, UniProt P01116, G12S)
reported-result: 100
--
compound: CCc1c(F)ccc2cc(O)cc(N3CCc4c(nc(OC[C@@]56CCCN5C[C@H](F)C6)nc4N4CCCn5nc(C(=O)N6CC7COCC6C7)cc5C4)C3)c12 (stereo partly drawn)
system: KRas G12S (Homo sapiens, UniProt P01116, G12S)
reported-result: 99
--
compound: CCc1c(F)ccc2cc(O)cc(N3CCc4c(nc(OC[C@@]56CCCN5C[C@H](F)C6)nc4N4CCCn5nc(C(=O)N(CC)CC)cc5C4)C3)c12
system: KRas G12S (Homo sapiens, UniProt P01116, G12S)
reported-result: 98
--
compound: CCc1c(F)ccc2cc(O)cc(N3CCc4c(nc(OC[C@@]56CCCN5C[C@H](F)C6)nc4N4CCCn5nc6c(c5C4)CCCN(C)C6=O)C3)c12
system: KRas G12S (Homo sapiens, UniProt P01116, G12S)
reported-result: 100
--
compound: CCNc1cc2n(n1)CCCN(c1nc(OC[C@@]34CCCN3C[C@H](F)C4)nc3c1CCN(c1cc(O)cc4ccc(F)c(CC)c14)C3)C2
system: KRas G12S (Homo sapiens, UniProt P01116, G12S)
reported-result: 76

Data provenance is patent US20250368649A1.
